Recorded TGI by entry
# Test system: UO-31 renal
# test: NCI tumour cell line growth inhibition, 48 h
Where a SMILES comes first, the peptide text is derived from it. [ ]: non-standard residue; d: D form. The star is where a group is joined. ξ: configuration not given here. ξD = NC(CC(=O)O)C(=O)O; Ac3c = NC1(C(=O)O)CC1; Boc = CC(C)(C)OC(=O)*; OBn = c1ccc(CO*)cc1

molecule	TGI
Cc1cc(N=Cc2c(CO)cnc(C)c2O)c(N=Cc2c(CO)cnc(C)c2O)cc1C.[Zn]	> 100 µM
O=C(/C=C/c1ccc(-c2ccccc2)cc1)NCc1ccc(C(=O)NCCc2c[nH]c3ccccc23)cc1	> 100 µM
COc1ccc(-c2nc(-c3cc4ccccc4oc3=O)cs2)cc1	> 100 µM
CC(C)[C@H]1NC(=O)[C@H]2N=C(O[C@@H]2C)[C@@H]2CCCN2C(=O)[C@H](Cc2ccccc2)NC(=O)[C@@H]2CSC(=N2)[C@@H](Cc2ccccc2)NC(=O)[C@@H]2CSC1=N2	> 100 µM
COC(=O)C1(NC(=O)C(CC(=O)OCc2ccccc2)NC(=O)OC(C)(C)C)CC1 (stereo unspecified) (Boc-[ξD](OBn)-[Ac3c]-OMe)	> 100 µM
CC(NC(=O)OCc1ccccc1)NC(=O)C(CC(=O)OC(C)(C)C)NC(=O)OC(C)(C)C (stereo unspecified)	> 100 µM

----------
# Test system: SN12C renal
# test: NCI tumour cell line growth inhibition, 48 h; in the data active = GI50 below about 0.43 µM; inactive = the rest
Outcome codes: active, inactive

smiles_representation	test_system	cat
O=C1c2ccccc2-c2nccc3cc(Cl)nc1c23	SN12C renal	inactive
Cc1ccccc1S(=O)(=O)N1[C@H](c2ccc(Cl)cc2)C(C(=O)N[C@@H](Cc2ccccc2)C(N)=O)=C[C@@H]1C(C)(C)C	SN12C renal	inactive
COC(=O)Nc1nc2ccc(Oc3ccc(NC(=O)Nc4cccc(Br)c4)cc3)cc2[nH]1	SN12C renal	inactive
O=C(Nc1ccc(Cl)cc1)c1cc2c(cc1O)[nH]c1ccccc12	SN12C renal	inactive
CNC(=O)c1c(NC(=O)c2cccc(C(F)(F)F)c2)sc2c1CCC(=O)C2	SN12C renal	active

----------
# Test system: HCC-2998 colon
# test: NCI tumour cell line growth inhibition, 48 h
TGI values, listed per item

compound	TGI
COC(=O)Nc1nc2ccc(Oc3ccc(NC(=O)Nc4cccc(Br)c4)cc3)cc2[nH]1	> 25 µM
CCCCCCOc1ccc(/C=N/NC(N)=S)cc1	> 100 µM
Cc1ccccc1S(=O)(=O)N1[C@H](c2ccc(Cl)cc2)C(C(=O)N[C@@H](Cc2ccccc2)C(N)=O)=C[C@@H]1C(C)(C)C	13.5 µM
O=C(NC1(C(=O)NNc2nnc(-c3ccccc3)c(-c3ccccc3)n2)C(c2ccccc2)C(c2ccccc2)=NN1c1ccccc1)c1ccccc1 (centres undefined)	> 100 µM

----------
# Lookup of reported TGI keyed by entry
# Test system: MDA-MB-435
# test: NCI tumour cell line growth inhibition, 48 h
Where a SMILES comes first, the peptide text is derived from it. [ ]: non-standard residue; d: D form. The star is where a group is joined. ξ: configuration not given here. ξD = NC(CC(=O)O)C(=O)O; Ac3c = NC1(C(=O)O)CC1; Boc = CC(C)(C)OC(=O)*; OBn = c1ccc(CO*)cc1

compound	comparator	TGI (µM)
O=C(NNc1cn[nH]c(=O)c1Cl)/C(=C/c1ccc2c(c1)OCO2)NC(=O)c1ccccc1	>	100
COC(=O)C1(NC(=O)C(CC(=O)OCc2ccccc2)NC(=O)OC(C)(C)C)CC1 (stereo unspecified) (Boc-[ξD](OBn)-[Ac3c]-OMe)	>	100
CN1C/C(=C\c2ccc(Cl)cc2)C(=O)/C(=C/c2ccc(Cl)cc2)C1	>	100
Cc1ccc2c[c]1[Hg][CH2]COS2(=O)=O	=	39.4
CNC(=O)c1c(NC(=O)c2cccc(C(F)(F)F)c2)sc2c1CCC(=O)C2	=	3.1
COc1c(OC)c(O)c2c(=O)c(OC)c(-c3ccc4c(c3)OCO4)oc2c1O	>	100
COc1cc(C(=O)/C=C/c2c(-c3ccc(F)cc3)nc3sc(C)cn23)cc(OC)c1OC	=	6.92
N#Cc1c2ccccc2c2n1-c1ccccc1OC(c1ccccc1)C2=O (stereo unspecified)	=	9.19
N#CC(C#N)=Cc1c(O)ccc2ccccc12	=	30
CN(C)c1ccc(C(=O)c2ccc(N(C)C)c(N)c2)cc1N	=	1.25
O=c1[nH]c(=O)n(COCc2ccccc2)c2ccc(Br)cc12	>	100
CC(=Nc1c2ccccc2nc2ccccc12)N(C)C	>	100
CC1=C(C(=O)Nc2ccc3[nH]ncc3c2)C(c2ccc(F)cc2)NC(=O)N1 (stereo unspecified)	>	25
C=C(C)C(=O)OC1CC2(C)OC2CC(OC(C)=O)/C(C)=C/C2OC(=O)C(=C)C21 (stereo unspecified)	=	7.5
NS(=O)(=O)c1ccc(C2C3=C(CCCC3=O)OC3=C2C(=O)c2ccccc2C3=O)cc1 (stereo unspecified)	=	0.357
C[C@]12CC/C(=N\N)C[C@@H]1CC[C@@H]1[C@@H]2CC[C@]2(C)/C(=N/N)CC[C@@H]12	>	100
CN(C)CCOC(=O)c1ccc(N)cc1	>	100
Cc1nc2cncc(C#Cc3cncc(C(=O)Nc4ccc(CN5CCN(C)CC5)c(C(F)(F)F)c4)c3)c2nc1C	=	3.03
O=C(c1ccccc1)c1c(C(F)(F)F)n([O-])c2cc(Cl)c(Cl)cc2[n+]1=O	=	3.08
Cc1ccc(C)c(COCCOCn2cc(Br)c(N)nc2=O)c1	>	100
Cc1cc2ccccc2n1CC(=O)N1CCCC1	>	100
COc1ccc(/C=C(\C(=C/c2ccc(OC)cc2)[N+](=O)[O-])[N+](=O)[O-])cc1	=	12.1
C=C1C(=O)O[C@H]2[C@H]1CC/C(CNC(=O)/C=C/c1cccc(OC)c1)=C\CC[C@@]1(C)O[C@@H]21	=	5.04
CC1CC[C@@]2(OC1)O[C@H]1C[C@H]3[C@@H]4CC[C@H]5C[C@@H](OC6OC(CO)C(OC7OC(CO)C(OC8OC(CO)C(O)C(OC9OC(C)C(OC%10OC(C)C(O)C(O)C%10O)C(O)C9O)C8OC8OCC(O)C(O)C8O)C(O)C7O)C(O)C6O)CC[C@]5(C)[C@H]4CC(=O)[C@]3(C)[C@H]1[C@@H]2C (stereo partly specified)	=	35.7
Nc1c(C(=O)c2cccc(-c3ccc[n+]([O-])c3)c2)cnn1-c1ccc(F)cc1F	>	25
C[C@@H]1COCCN1c1nc(-c2cnc(N)cc2C(F)F)nc(N2[C@H](C)COC[C@@H]2C)n1	=	10.6
CCOC(=O)c1c2c(n(-c3ccc(OC)cc3)c1C)C(=O)C(=O)c1ccccc1-2	=	0.351
O=c1[nH]c2ccccc2nc1/C=C(\O)C(F)F	>	100
O=C1CSC2=NCC3(NN12)c1ccccc1-c1ccccc13	>	10
COc1ccc(C2=CC(c3cc(OC)c(OC)c(OC)c3)NC(=O)N2)cc1OC (stereo unspecified)	=	16.9
O=[N+]([O-])c1cc(O)c(O)cc1-c1cn2ccsc2n1	>	100
